- protocolDetails: protein stability index of a GFP-peptide fusion (GPS, HEK-293T) (PSI 1-6); higher = more stable;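 also: 24-mer peptide tiles fused after GFP, lentivirally expressed, FACS-sorted into six equal bins by GFP/DsRed ratio, decoded by Illumina sequencing, PSI is the read-weighted mean bin number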
- conditionSet: treatment: MLN4924 1 uM, 8 h; c terminus: a fixed tail appended
Response key: t means protein stability index >= 4; f means protein stability index < 4.

// known answers, use as guide
recordSequence	cat
FAVGYIKISWSTWGEMTLSLFSLL [SLC19A2]	f
EIIKVTEQLIEAINNGDFEAYTKI [CAMK2D]	f
VDSFQIILDSLLFFYDCSNNPISE [TENT5C]	f
ELLSAPPPDLGAQRRHGWNPKDCS [SPSB2]	f
ALVCQVDNDHKEAVGKMGFVVTML [ZER1]	f

Challenge: Exam item: decide whether the reported protein stability index for QLAAVHLSKSRTDYQPTQAGRLMR [RNF180] is at least 4.
Response given: f

Challenge: Exam item: decide whether the reported protein stability index for PKDLDPSLCTHLIYAFAGMTNHQL [CHIT1] is at least 4.
Response given: f

----------
- protocolDetails: protein stability index of a GFP-peptide fusion (GPS, HEK-293T) (PSI 1-6); higher = more stable
- conditionSet: treatment: DMSO; c terminus: a fixed tail appended
Response key: 1.0 means protein stability index >= 3; 0.0 means protein stability index < 3.

recordSequence	cat
LSSAVWPGGETEALTRLERHLERK [CRY1]	1.0
SALTEGAKEEGGEEVAKAVLEQEE [EPB41L3]	1.0
LPCTSRCPRPCRESAFKLSTGTSR [SCNN1D]	0.0
FQEPDSPLPPARSPTEPGPERRRS [WEE1]	1.0

Challenge: Exam item: decide whether the reported protein stability index for LLNAASTVARPVFTEYQASAFGNV [RHOBTB3] is at least 3.
Response given: 0.0

Challenge: Exam item: decide whether the reported protein stability index for RFPYLCQKNGGGAYLVPYLVLLII [SLC6A17] is at least 3.
Response given: 0.0

Challenge: Exam item: decide whether the reported protein stability index for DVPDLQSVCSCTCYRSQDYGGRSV [KCNK9] is at least 3.
Response given: 0.0

Challenge: Exam item: decide whether the reported protein stability index for CPAELFTNTRSDLDVFGRGDNISD [LUC7L3] is at least 3.
Response given: 1.0

Challenge: Exam item: decide whether the reported protein stability index for EVRAKFKFSLLNAKREETKAMESQ [SPOPL] is at least 3.
Response given: 1.0

Challenge: Exam item: decide whether the reported protein stability index for SNIKFCSFHPLQYIGFYGKETTNT [PDS5B] is at least 3.
Response given: 0.0

Challenge: Exam item: decide whether the reported protein stability index for VPQAPRRLRASFSRKPSLKGNRED [PLEKHN1] is at least 3.
Response given: 1.0

Challenge: Exam item: decide whether the reported protein stability index for VLREDQIPRGFPTIDMGPQLKVVE [PTPRD] is at least 3.
Response given: 1.0

Challenge: Exam item: decide whether the reported protein stability index for TRRSSYEDSSLPSINALLQAEVLS [HNF4A] is at least 3.
Response given: 1.0

Challenge: Exam item: decide whether the reported protein stability index for NMLKNIELFDKLSLRFNGRVLFIK [KCTD10] is at least 3.
Response given: 0.0

----------
- protocolDetails: protein stability index of a GFP-peptide fusion (GPS, HEK-293T) (PSI 1-6); higher = more stable
- conditionSet: treatment: MLN4924 1 uM, 8 h; c terminus: a fixed tail appended
measurementLabel: protein stability index
# print the numeric value only

recordSequence	protein stability index
TLTWDSGNPEPVSYYIIQHKPKNS [PTPRD]	3.05
PGKETLESALIALDSEKPKKLRFH [EHMT1]	4.11

Measured protein stability index, ADTNSDRLFTVNDVKVGGSKYGII [DCAF4] : 3.02

----------
- protocolDetails: protein stability index of a GFP-peptide fusion (GPS, HEK-293T) (PSI 1-6); higher = more stable
- conditionSet: treatment: DMSO; c terminus: a fixed tail appended
measurementLabel: protein stability index
# print the numeric value only

Worked set:
recordSequence	experimentalResult
ALEFWRQEELTRINQSFTGAERKA [IQUB]	3.87
PGGPCDSTLGGDIRESDPEQAPAP [TBX6]	5.49
ENILSFMSYDEISQLRLVCKRMDL [FBXO28]	2.32
LKNHFQSVLEQLELQEKQKNEKLI [TAF7L]	2.82
MAPKTKKGCKVTLPEKPVKLASHT [FBF1]	4.16

Measured protein stability index, GSRYDARRGVSDWDLRMKLHDRGA [DNAAF3] : 3.61

Measured protein stability index, SSALHLSKGMSIFLDILRRADKND [NECAB1] : 2.29

Measured protein stability index, SLHDGSDGLDGISVGSYLDTLADD [LURAP1L] : 5

Measured protein stability index, SSISSSARRTTRSEPIRRAGKSGT [MAP2] : 4.89

----------
- protocolDetails: protein stability index of a GFP-peptide fusion (GPS, HEK-293T) (PSI 1-6); higher = more stable
- conditionSet: treatment: MLN4924 1 uM, 8 h; c terminus: a fixed tail appended
measurementLabel: protein stability index
# print the numeric value only

Worked set:
recordSequence	measurementLabel	experimentalResult
MHPGRTTGKGPSTHTQIDQQPPRL [M1AP]	protein stability index	4.51
NFLIGRQGNKKEHVIHIIDFGLAK [CSNK1G1]	protein stability index	1.89
ALRVLAEQNIIPSATNVTCYYQPA [TENT5C]	protein stability index	2.2
PLGGGVGGQDGLGAPKDQQQPPQQ [KLHL14]	protein stability index	5.33
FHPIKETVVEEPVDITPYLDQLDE [INTS3]	protein stability index	4.5
ASLLPSARLASPLPREEEIVFPEK [ADAMTS4]	protein stability index	4.97
MAQQQMTSSQKALMLELKSLQEEP [UBE2R2]	protein stability index	4.29
FIVIDAMLERIKHEKTVDIYGHVT [PTPRD]	protein stability index	2.5
NQACKLLSDDYEQVRSAAVQLIWV [INTS4]	protein stability index	2.59
YSSGPQSWYPKANNQDFIPFTKKR [ZC2HC1C]	protein stability index	3.68

// moving on: another record for protein stability index
Measured protein stability index, CRLTHIPAYKVSGDKNEEQVLNAI [ZER1] : 3.42

----------
- protocolDetails: protein stability index of a GFP-peptide fusion (GPS, HEK-293T) (PSI 1-6); higher = more stable
- conditionSet: treatment: MLN4924 1 uM, 8 h; c terminus: a fixed tail appended
Response key: MET means protein stability index >= 3; NOT MET means protein stability index < 3.

// known answers, use as guide
recordSequence	cat
PYREDEEGAFGEHGSQGTYSNTKE [MAP2]	MET
DKDKSDDRMARPSGRSGHNTRGTG [CSNK1G3]	MET
EQLERIERKNAEMYKLSSEQFHEA [CHCHD6]	MET

Challenge: Exam item: decide whether the reported protein stability index for ATGEVLGQFYLDLYPREGKYNHAA [NLN] is at least 3.
Response given: NOT MET

Challenge: Exam item: decide whether the reported protein stability index for ALVAPLLRLENNHCHIEESEHVLK [VPS39] is at least 3.
Response given: MET

Challenge: Exam item: decide whether the reported protein stability index for TFAMVKGYFFPTSARDCKFTGNFF [DHCR7] is at least 3.
Response given: NOT MET

----------
- protocolDetails: protein stability index of a GFP-peptide fusion (GPS, HEK-293T) (PSI 1-6); higher = more stable
- conditionSet: treatment: DMSO; c terminus: a fixed tail appended
protein stability index by entry:
# print the numeric value only

Worked set:
recordSequence	experimentalResult
KEENEAESDVKHRTRDYKKTSLAP [PRIM1]	5.37
PRELFPPLFMAAFDGRHSQTLKAM [PRAME]	2.65
STSFLPELSSVHPPHYFFTYRIRI [FBXO3]	2.66
QLAQDDIDGIQAIYGRSQNPVQPI [MMP1]	3.69
EIIKVTEQLIEAINNGDFEAYTKI [CAMK2D]	2.47

Measured protein stability index, AVSAMKCGLLPISPEALSLGEVAY [ADD1] : 2.31

Measured protein stability index, VEEQLAQLRCEMEQQNQEYKILLD [KRT17] : 4.75

Measured protein stability index, NELTLNEKNFFPEYNYDWWEKKPF [CHGB] : 2.73

Measured protein stability index, PAGEMKPMPLSEGKSILLFGGAAA [BCL2L13] : 3.53

Measured protein stability index, CYAAMKKKIYAMGGGSYGKLFESV [GAN] : 2.16

Measured protein stability index, FGNRIKRVKLISNKGTETDNDPSC [PHTF1] : 4.06

Measured protein stability index, IATGPFVAFGIEADDESLLRTSNG [DNAAF3] : 3.9

Measured protein stability index, YPITLYLEKEREKEISDDEAEEEK [HSP90AB1] : 5.01
